Test system: Human Immunodeficiency Virus type 1 (HIV) strain #237228 in human peripheral blood lymphocytes (PBLs)
ASSAY_COMMENT: Anti-HIV-1 antiviral activity in acutely infected peripheral blood lymphocytes (CPE and RT activity)
Format: cell-based, Human Immunodeficiency Virus type 1 (HIV); human cells
SETTINGS: only non-toxic concentrations used, 8640 min
READOUT_NAME: antiviral index (Al), PBL cells

These solved cases illustrate the format of a correct answer.
CC(C)N(C[C@H](O)[C@H](Cc1ccccc1)NC(=O)[C@H](CC(N)=O)NC(=O)c1ccc2ccccc2n1)NC(=O)C(C)(C)C
> 50
CC(C)[C@H](NC(=O)OCc1ccccn1)C(=O)N[C@@H](Cc1ccccc1)C(O)CN1CC2CCCCC2CN1C(=O)OC(C)(C)C (stereo partly drawn)
< 5

--- query ---
Lookup: Give the measured antiviral index (Al), PBL cells of CC(C)N(C[C@H](O)[C@H](Cc1ccccc1)NC(=O)[C@H](CC(N)=O)NC(=O)c1ccc2ccccc2n1)NC(=O)NC(C)(C)C .
Found: > 50
